Source listed as patent US20260265279A1.

Each entry below carries its reported IC50.
targetOrTestSystem: ROCK1 (Homo sapiens)
Construct: purchased Invitrogen PV3691
Sequence (Q13464 1-535 limits assumed): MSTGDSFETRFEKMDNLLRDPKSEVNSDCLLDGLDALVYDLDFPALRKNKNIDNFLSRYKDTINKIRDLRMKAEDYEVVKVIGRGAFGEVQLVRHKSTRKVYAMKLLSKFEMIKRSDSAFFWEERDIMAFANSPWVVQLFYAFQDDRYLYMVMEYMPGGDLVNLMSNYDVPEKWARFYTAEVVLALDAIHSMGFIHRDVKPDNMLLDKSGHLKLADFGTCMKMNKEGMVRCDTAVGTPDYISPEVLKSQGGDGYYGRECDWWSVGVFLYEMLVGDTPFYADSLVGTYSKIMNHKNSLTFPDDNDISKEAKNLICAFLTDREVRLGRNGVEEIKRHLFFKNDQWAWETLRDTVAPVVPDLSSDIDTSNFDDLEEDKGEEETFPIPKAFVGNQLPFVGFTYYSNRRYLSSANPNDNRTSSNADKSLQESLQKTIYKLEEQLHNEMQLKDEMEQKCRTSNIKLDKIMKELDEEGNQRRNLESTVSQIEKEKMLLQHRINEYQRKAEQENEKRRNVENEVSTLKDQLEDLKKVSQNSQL
assayInfo: Kinase IC50 assay, HTRF kinEASE STK S2 kit, ROCK1
Assay type: biochemical
experimentalConditions: ATP 1.5 μM, 2.5 ng/well enzyme, 120 min

Some solved entries appear below for comparison.
O=C(c1cccc(C#Cc2ncc(F)c(Nc3cc(F)c(-c4cn[nH]c4)cc3F)n2)n1)N1CC(F)(F)C1 > 100 µM
Cc1cc(C(=O)N2CC(F)(F)C2)n(C)c1C#Cc1ncc(F)c(Nc2cc(F)c(-c3cn[nH]c3)c(F)c2)n1 > 100 µM
Cc1cc(C(=O)N2CC(F)(F)C2)n(C)c1C#Cc1ncc(F)c(Nc2cnc(-c3cn[nH]c3C)cc2F)n1 18.4 µM

Req: Give the measured IC50 of Cc1cc(C(=O)N2CC(F)(F)C2)n(C)c1C#Cc1ncc(F)c(Nc2ccc(-c3cn[nH]c3C)cc2F)n1 .
Resp: > 100 µM
